// IC50 lookup, one value per entry
biological target: UniProtKB P42226; experiment: MSD-pSTAT-PBMC Assay (pSTAT6, IL-4 stimulated); conditions: compound 3 hrs, then 1 ng/mL IL-4 for 10 min

# COMPOUND, IC50
rows = [
    ("CC(C)OC(=O)[C@H](Cc1ccccc1)NP(=O)(Oc1ccccc1)C(F)(F)c1ccc2sc(C(=O)N[C@H]3C[C@@H]4C[C@@H]4C[C@H]4CC[C@@H](C(=O)N5CC(C(=O)N6CCOCC6)C5)N4C3=O)cc2c1 (some centres unmarked)", "> 3 µM"),
    ("CC(C)(C)C(=O)SCCOP(=O)(OCCSC(=O)C(C)(C)C)C(F)(F)c1ccc2sc(C(=O)N[C@H]3C[C@@H]4C[C@@H]4C[C@H]4CC[C@@H](C(=O)N5CC(C(=O)N6CCOCC6)C5)N4C3=O)cc2c1", "> 3 µM"),
]

* * *

molecular target: Recombinant STAT6 protein (STAT6(W123-T658)) (Homo sapiens); construct: STAT6(W123-T658); experiment: STAT6 Fluorescence Polarization (FP) Assay; conditions: STAT6(W123-T658) 250 nM, probe 5-FAM-ApYKPFQDLI-NH2 2 nM, 45-minute incubation
Sequence (P42226 123-658, species assumed): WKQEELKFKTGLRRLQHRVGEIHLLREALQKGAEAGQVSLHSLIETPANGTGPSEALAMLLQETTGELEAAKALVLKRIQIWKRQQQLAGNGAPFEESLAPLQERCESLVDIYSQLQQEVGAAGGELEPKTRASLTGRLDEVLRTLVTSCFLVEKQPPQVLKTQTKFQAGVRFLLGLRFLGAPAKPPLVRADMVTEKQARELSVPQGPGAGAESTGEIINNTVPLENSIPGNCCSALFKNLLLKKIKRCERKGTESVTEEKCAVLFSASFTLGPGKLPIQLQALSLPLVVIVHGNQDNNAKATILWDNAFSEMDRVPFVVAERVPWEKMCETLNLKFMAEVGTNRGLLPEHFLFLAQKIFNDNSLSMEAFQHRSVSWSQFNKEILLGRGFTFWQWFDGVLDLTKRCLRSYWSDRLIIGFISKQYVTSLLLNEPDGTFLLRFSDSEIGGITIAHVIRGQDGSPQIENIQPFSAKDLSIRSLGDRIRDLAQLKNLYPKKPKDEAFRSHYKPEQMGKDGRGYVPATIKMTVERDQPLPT
PARAMETER: IC50

# COMPOUND, PARAMETER, RESULT
data = [
    ("N#Cc1ccc(C2(F)CN(C(=O)[C@@H]3CC[C@@H]4C[C@H]5C[C@H]5C[C@H](NC(=O)c5cc6cc(C(F)(F)P(=O)(O)O)ccc6s5)C(=O)N43)C2)cc1 [Compound 62]", "IC50", "0.3 to 3 µM"),
    ("O=C(N[C@H]1C[C@@H]2C[C@@H]2C[C@H]2CC[C@@H](C(=O)N3CC(c4ccon4)C3)N2C1=O)c1cc2cc(C(F)P(=O)(O)O)ccc2s1 (stereo partly drawn) [Example 312]", "IC50", "3 to 30 µM"),
    ("O=C(N[C@H]1C[C@@H]2C[C@@H]2C[C@H]2CC[C@@H](C(=O)N3CC(C(O)c4ccccc4)C3)N2C1=O)c1cc2cc(CP(=O)(O)O)ccc2s1 (stereo partly drawn) [Example 365]", "IC50", "3 to 30 µM"),
]

* * *

Biological target: Recombinant STAT3 protein (STAT3(G127-I722)) (Homo sapiens)
Construct: STAT3(G127-I722)
Sequence (P40763 127-722, species assumed): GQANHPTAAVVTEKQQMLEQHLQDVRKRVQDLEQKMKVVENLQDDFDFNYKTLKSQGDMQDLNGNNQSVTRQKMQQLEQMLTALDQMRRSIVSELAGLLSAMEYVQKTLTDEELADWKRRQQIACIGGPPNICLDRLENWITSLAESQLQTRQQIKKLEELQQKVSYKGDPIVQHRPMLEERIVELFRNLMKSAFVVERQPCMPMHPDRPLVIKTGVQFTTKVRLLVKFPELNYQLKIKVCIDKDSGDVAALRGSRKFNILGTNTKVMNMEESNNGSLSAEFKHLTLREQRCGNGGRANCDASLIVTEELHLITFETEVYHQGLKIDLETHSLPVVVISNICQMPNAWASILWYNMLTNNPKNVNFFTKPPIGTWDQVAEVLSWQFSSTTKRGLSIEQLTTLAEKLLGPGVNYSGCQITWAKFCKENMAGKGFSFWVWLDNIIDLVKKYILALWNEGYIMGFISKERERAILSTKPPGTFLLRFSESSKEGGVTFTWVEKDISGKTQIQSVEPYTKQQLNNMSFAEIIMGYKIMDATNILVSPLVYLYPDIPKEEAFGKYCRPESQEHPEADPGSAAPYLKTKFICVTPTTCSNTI
Assay: STAT3 Fluorescence Polarization (FP) Assay
Conditions: STAT3(G127-I722) 25 nM, probe 5-FAM-GpYLPQTV-NH2 2 nM, 45-minute incubation
Description: STAT3 Fluorescence Polarization (FP) Assay An FP assay was developed to determine IC50 values for test substances. […] Reaction components were mixed, and FP was measured after 45-minute incubation at room temperature using a Tecan Spark multimode plate reader. FP signal (mP) was plotted against the log concentration of the test substances and IC50 values were calculated by nonlinear regression analysis using GraphPad Prism software. […]
pIC50: −log10 of the molar value.

# COMPOUND, pIC50
rows = [
    ("O=C(N[C@H]1C[C@H]2C[C@H]2C[C@H]2CC[C@@H](C(=O)N3CC(c4ncccn4)C3)N2C1=O)c1cc2cc(C(F)P(=O)(O)O)ccc2s1 (some centres unmarked) [Example 317]", "> 7.00"),
    ("O=C(NC1C[C@@H]2C[C@@H]2C[C@H]2CC[C@@H](C(=O)N3CC(C(=O)N4CCOCC4)C3)N2C1=O)c1cc2cc(CP(=O)(O)O)ccc2s1 (some centres unmarked) [Compound 20]", "5.00 to 6.00"),
    ("Cc1cnc(C2CN(C(=O)[C@@H]3CC[C@@H]4C[C@H]5C[C@H]5C[C@H](NC(=O)c5cc6cc(C(F)P(=O)(O)O)ccc6s5)C(=O)N43)C2)o1 (some centres unmarked) [Example 324]", "6.00 to 7.00"),
    ("O=C(N[C@H]1C[C@@H]2C[C@@H]2C[C@H]2CC[C@@H](C(=O)N3CCN(C(=O)C4COC4)CC3)N2C1=O)c1cc2cc(C(F)(F)P(=O)(O)O)ccc2s1 [Compound 42]", "6.00 to 7.00"),
    ("O=C(N[C@H]1C[C@@H]2C[C@@H]2C[C@H]2CC[C@@H](C(=O)N3CCOc4ncccc43)N2C1=O)c1cc2cc(C(F)P(=O)(O)O)ccc2s1 (some centres unmarked) [Example 386]", "5.00 to 6.00"),
    ("C[C@]12C[C@H]3CC[C@@H](C(=O)N4CC(c5cccnc5)C4)N3C(=O)[C@@H](NC(=O)c3cc4cc(CP(=O)(O)O)ccc4s3)C[C@H]1C2 [Example 238]", "6.00 to 7.00"),
    ("O=C(N[C@H]1C[C@H]2C[C@H]2C[C@H]2CC[C@@H](C(=O)N3CC(c4c[nH]cn4)C3)N2C1=O)c1cc2cc(C(F)(F)P(=O)(O)O)ccc2s1 [Compound 54]", "> 7.00"),
    ("COCC1(F)CN(c2ccncc2C2CN(C(=O)[C@@H]3CC[C@@H]4C[C@H]5C[C@H]5C[C@H](NC(=O)c5cc6cc([C@@H](F)P(=O)(O)O)ccc6s5)C(=O)N43)C2)C1 [Example 425]", "> 7.00"),
    ("CC(=O)N1CCC2C1CN2C(=O)[C@@H]1CC[C@@H]2C[C@H]3C[C@H]3C[C@H](NC(=O)c3cc4cc(C(F)P(=O)(O)O)ccc4s3)C(=O)N21 (stereo in doubt) [Example 289]", "6.00 to 7.00"),
    ("O=C(N[C@H]1C[C@@H]2C[C@@H]2C[C@H]2CC[C@@H](C(=O)NC3CN([C@@H]4CCOC4)C3)N2C1=O)c1cc2cc(C(F)(F)P(=O)(O)O)ccc2s1 [Compound 53]", "6.00 to 7.00"),
    ("O=C(N[C@H]1C[C@@H]2C[C@@H]2CC2CC[C@@H](C(=O)N3CC(c4cncnc4N4CCC4)C3)N2C1=O)c1cc2cc([C@H](F)P(=O)(O)O)ccc2s1 (single isomer, unassigned) [Example 402]", "> 7.00"),
]
